I'd appreciate it if you could supply pIC50 values for the items below.
- System: 184B5
- procedure-details: Fluorometric resazurin-based cell proliferation assay, 184B5
- assay-context: Homo sapiens, 72 h compound treatment
One number for each entry, as −log10 of the molar value.

CCC(C)[C@H](NC(=O)[C@H]1CCCCN1C)C(=O)N(C)[C@H](C[C@@H](OC(C)=O)c1nc(C(=O)N[C@@H](Cc2ccc(F)cc2)C[C@H](C)C(=O)NCCSSc2ccccn2)cs1)C(C)C (stereo partly drawn) : 7.58
CCC(C)[C@H](NC(=O)[C@H]1CCCCN1C)C(=O)N(COC(=O)CC(C)C)[C@H](C[C@@H](OC(C)=O)c1nc(C(=O)N[C@@H](Cc2ccc(O)cc2)C[C@H](C)C(=O)NCCSSc2ccccn2)cs1)C(C)C (stereo partly drawn) : 8.21

Here is another compound to look at.
Q: Look up and report measured pIC50 (184B5) for the following compound: CCCO[C@H](C[C@H](C(C)C)N(CCC)C(=O)[C@@H](NC(=O)[C@H]1CCCCN1C)C(C)CC)c1nc(C(=O)N[C@@H](Cc2ccc(O)cc2)C[C@H](C)C(=O)O)cs1 (stereo partly drawn)
A: 10.05

----------
- Tested on: MDA-MB-468
- procedure-details: Fluorometric resazurin-based cell proliferation assay, MDA-MB-468
- assay-context: Homo sapiens, MDA-MB-468, 72 h, read-out: IC50 MDA-MB-468
observed-property: pIC50
Give bare numbers, as −log10 of the molar value.

Some solved entries appear below for comparison.
CCC(C)[C@H](NC(=O)[C@H]1CCCCN1C)C(=O)N(C)[C@H](C[C@@H](OC(C)=O)c1nc(C(=O)N[C@@H](Cc2ccc(F)cc2)C[C@H](C)C(=O)O)cs1)C(C)C (stereo partly shown) : 8.44
CCCO[C@H](C[C@H](C(C)C)N(C)C(=O)[C@@H](NC(=O)[C@H]1CCCCN1C)C(C)CC)c1nc(C(=O)N[C@@H](Cc2ccccc2)C[C@H](C)C(=O)O)cs1 (stereo partly shown) : 8.09
CCC(C)[C@H](NC(=O)[C@H]1CCCCN1C)C(=O)N(C)[C@H](C[C@@H](OC(C)=O)c1nc(C(=O)N[C@@H](Cc2ccc(F)cc2)C[C@H](C)C(=O)NCCSSc2ccccn2)cs1)C(C)C (stereo partly shown) : 7.73

Here is another molecule to look at.
Q: Give a short answer stating reported pIC50 for CCC(C)[C@H](NC(=O)[C@H]1CCCCN1C)C(=O)N(COC(=O)CC(C)C)[C@H](C[C@@H](OC(C)=O)c1nc(C(=O)N[C@@H](Cc2ccc(O)cc2)C[C@H](C)C(=O)NCCSSc2ccccn2)cs1)C(C)C (stereo partly shown) .
A: 9.00

----------
I'd appreciate it if you could supply IC50 values for the items below.
- Tested on: HT-29
- procedure-details: Fluorometric resazurin-based cell proliferation assay, HT-29
- Design: species or system human
- assay-context: Homo sapiens, HT-29; 72 h compound treatment
Give your result as the value with the unit written after it.

CCCO[C@H](C[C@H](C(C)C)N(C)C(=O)[C@@H](NC(=O)[C@H]1CCCCN1C)C(C)CC)c1nc(C(=O)N[C@@H](Cc2ccccc2)C[C@H](C)C(=O)O)cs1 (some centres unmarked) : 0.8 nM

Here is another molecule to look at.
Q: Give a short answer stating reported IC50 for CCC(C)[C@H](NC(=O)[C@H]1CCCCN1C)C(=O)N(C)[C@H](C[C@@H](OC(C)=O)c1nc(C(=O)N[C@@H](Cc2ccc(F)cc2)C[C@H](C)C(=O)O)cs1)C(C)C (some centres unmarked) .
A: 1.2 nM
